Provide the recorded pIC50 for the entries that follow.
biological target: UniProt P04585; assay: HIV protease enzyme assay (fluorogenic substrate 2-aminobenzoyl-Ile-Nle-Phe(p-NO2)-Gln-ArgNH2); type: biochemical; conditions: IC50 (range given for the listed examples), inhibition of the HIV enzyme; range over Examples 4, 4a, 7, 8 and 9
pIC50: −log10 of the molar value.

# compound, result
data = [
    ("CC(C)CCN(C[C@@H](O)[C@H](Cc1ccccc1)NC(=O)C1CCCS(=O)(=O)C1)C(=O)NC(C)(C)Cn1ccnc1 (stereo partly drawn) [Example 4a]", "6.85 to 8.52"),
    ("CC(C)(C)NC(=O)[C@@H]1C[C@@H]2CCCC[C@@H]2CN1C[C@@H](O)[C@H](Cc1ccccc1)NC(=O)C1CCCS(=O)(=O)C1 (stereo partly drawn) [Example 7]", "6.85 to 8.52"),
]

get_value(item= CC(C)CCN(C[C@@H](O)[C@H](Cc1ccccc1)NC(=O)C1CCCS(=O)(=O)C1)S(=O)(=O)c1ccccc1 (stereo partly drawn) [Example 8] , readout=pIC50) returns 6.85 to 8.52

###

target: UniProtKB P04585; test: HIV protease enzyme assay (fluorogenic substrate 2-aminobenzoyl-Ile-Nle-Phe(p-NO2)-Gln-ArgNH2); format: biochemical; details: IC50, HIV protease, pH 6.4, ambient temperature
Provide the recorded IC50 for the entries that follow.
Numbers only, in nM.

In the examples that follow, each entry is paired with its recorded IC50.
# compound, IC50 (nM)
records = [
    ("CC(C)CCN(C[C@@H](O)[C@H](Cc1ccccc1)NC(=O)C1CCCS(=O)(=O)C1)S(=O)(=O)c1ccccc1 (stereo partly drawn)", 4),
    ("CC(C)CCN(C[C@@H](O)[C@H](Cc1ccccc1)NC(=O)C1CCCS(=O)(=O)C1)C(=O)NC(C)(C)Cn1ccnc1 (stereo partly drawn)", 46),
]

Continue with the next compound.
get_value(item= CC(C)(C)NC(=O)[C@@H]1C[C@@H]2CCCC[C@@H]2CN1C[C@@H](O)[C@H](Cc1ccccc1)NC(=O)C1CCCS(=O)(=O)C1 (stereo partly drawn) , readout=IC50) returns 3

###

Target: HIV protease (Human immunodeficiency virus type 1 group M subtype B)
Experiment: HIV protease enzyme assay (fluorogenic substrate 2-aminobenzoyl-Ile-Nle-Phe(p-NO2)-Gln-ArgNH2)
Format: biochemical
Conditions: inhibition of the HIV enzyme; range over Examples 4, 4a, 7, 8 and 9; read-out: IC50 (range given for the listed examples)
Experimental: The compounds of the present invention are effective HIV protease inhibitors. […] The calculated IC50 indicates the concentration providing inhibition of 50%, i.e., the concentration at which the inhibitor compound reduces enzyme activity by 50%). The enzyme method is described below. […] HIV protease is diluted in the assay buffer to a final concentration of glycerol is 18%. […] The increase in fluorescence is monitored at 4 time points (0, 8, 16 and 24 minutes) at ambient temperature. […]
pIC50: −log10 of the molar value.
endpoint: pIC50

// compound CC(C)CN(CC(O)C(Cc1ccccc1)NC(=O)C1CCCS(=O)(=O)C1)S(=O)(=O)NC(C)(C)C (stereo not shown) [Example 9] , assay HIV protease (Human immunodeficiency virus type 1 group M subtype B), pIC50 value: 6.85 to 8.52
